Target: EPAC2 (Mus musculus, UniProt Q9EQZ6)
Sequence (Q9EQZ6 1-1011): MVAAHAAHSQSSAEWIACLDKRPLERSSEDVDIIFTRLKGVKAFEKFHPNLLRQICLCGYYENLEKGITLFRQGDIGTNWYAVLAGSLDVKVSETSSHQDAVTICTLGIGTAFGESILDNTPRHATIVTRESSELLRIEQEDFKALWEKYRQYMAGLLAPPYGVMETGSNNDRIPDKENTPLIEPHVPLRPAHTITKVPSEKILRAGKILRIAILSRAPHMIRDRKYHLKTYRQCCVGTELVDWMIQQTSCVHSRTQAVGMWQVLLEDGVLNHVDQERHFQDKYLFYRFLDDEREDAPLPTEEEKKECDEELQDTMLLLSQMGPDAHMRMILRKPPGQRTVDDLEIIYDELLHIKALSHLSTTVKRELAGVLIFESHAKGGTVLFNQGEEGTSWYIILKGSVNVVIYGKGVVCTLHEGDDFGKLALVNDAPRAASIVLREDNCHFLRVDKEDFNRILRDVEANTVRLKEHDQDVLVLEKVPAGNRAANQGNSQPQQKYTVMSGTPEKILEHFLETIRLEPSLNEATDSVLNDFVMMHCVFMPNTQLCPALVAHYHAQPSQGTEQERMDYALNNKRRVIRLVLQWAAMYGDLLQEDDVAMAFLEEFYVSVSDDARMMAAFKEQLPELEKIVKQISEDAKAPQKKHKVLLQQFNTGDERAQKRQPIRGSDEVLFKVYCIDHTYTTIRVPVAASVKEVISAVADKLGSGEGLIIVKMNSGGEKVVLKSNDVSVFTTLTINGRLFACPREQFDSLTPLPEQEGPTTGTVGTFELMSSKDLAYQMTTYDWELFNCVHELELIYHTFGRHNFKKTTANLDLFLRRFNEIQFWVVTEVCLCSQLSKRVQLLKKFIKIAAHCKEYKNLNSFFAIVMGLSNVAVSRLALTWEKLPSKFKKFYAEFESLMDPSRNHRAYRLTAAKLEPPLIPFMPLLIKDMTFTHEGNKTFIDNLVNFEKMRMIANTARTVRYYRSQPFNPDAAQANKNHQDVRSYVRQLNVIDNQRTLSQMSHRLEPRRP
Experiment: 8-NBD-cAMP competition binding assay
Details: RA = IC50, cAMP/ IC50, compound
In this section, each of the compounds is paired with its reported Relative Potency (RA).
Number only, no unit.

>>> value_measured("Cc1cc(C)c(Nc2cc(Cl)ccc2Cl)c(C)c1 [Compound 14c]")
100
>>> value_measured("Cc1cc(C)c(S(=O)(=O)n2ccc3cnccc32)c(C)c1 [Compound 24b]")
4.5
>>> value_measured("Cc1cc(C)c(S(=O)(=O)c2ccc(I)cc2)c(C)c1")
10
>>> value_measured("CCc1cccn1S(=O)(=O)c1ccc(C)cc1C [Compound 20h]")
30.8
>>> value_measured("Cc1ccc(Nc2c(C)cc(C)cc2C)cc1 [Compound 14a, p-Tolyl-(2,4,6-trimethylphenyl)amine]")
10.5

For the record Cc1cc(C)c(S(=O)(=O)n2ccc3cc(C(=O)O)ccc32)c(C)c1 [Compound 22c] , what value of Relative Potency (RA) is listed for EPAC2 (Mus musculus, UniProt Q9EQZ6)?
3.7

Cool, now Cc1cc(C)c(S(=O)(=O)n2ccc3ncccc32)c(C)c1 [Compound 24a]
10.5

----------
Biological target: UniProtKB Q9EQZ6
Sequence (Q9EQZ6 1-1011): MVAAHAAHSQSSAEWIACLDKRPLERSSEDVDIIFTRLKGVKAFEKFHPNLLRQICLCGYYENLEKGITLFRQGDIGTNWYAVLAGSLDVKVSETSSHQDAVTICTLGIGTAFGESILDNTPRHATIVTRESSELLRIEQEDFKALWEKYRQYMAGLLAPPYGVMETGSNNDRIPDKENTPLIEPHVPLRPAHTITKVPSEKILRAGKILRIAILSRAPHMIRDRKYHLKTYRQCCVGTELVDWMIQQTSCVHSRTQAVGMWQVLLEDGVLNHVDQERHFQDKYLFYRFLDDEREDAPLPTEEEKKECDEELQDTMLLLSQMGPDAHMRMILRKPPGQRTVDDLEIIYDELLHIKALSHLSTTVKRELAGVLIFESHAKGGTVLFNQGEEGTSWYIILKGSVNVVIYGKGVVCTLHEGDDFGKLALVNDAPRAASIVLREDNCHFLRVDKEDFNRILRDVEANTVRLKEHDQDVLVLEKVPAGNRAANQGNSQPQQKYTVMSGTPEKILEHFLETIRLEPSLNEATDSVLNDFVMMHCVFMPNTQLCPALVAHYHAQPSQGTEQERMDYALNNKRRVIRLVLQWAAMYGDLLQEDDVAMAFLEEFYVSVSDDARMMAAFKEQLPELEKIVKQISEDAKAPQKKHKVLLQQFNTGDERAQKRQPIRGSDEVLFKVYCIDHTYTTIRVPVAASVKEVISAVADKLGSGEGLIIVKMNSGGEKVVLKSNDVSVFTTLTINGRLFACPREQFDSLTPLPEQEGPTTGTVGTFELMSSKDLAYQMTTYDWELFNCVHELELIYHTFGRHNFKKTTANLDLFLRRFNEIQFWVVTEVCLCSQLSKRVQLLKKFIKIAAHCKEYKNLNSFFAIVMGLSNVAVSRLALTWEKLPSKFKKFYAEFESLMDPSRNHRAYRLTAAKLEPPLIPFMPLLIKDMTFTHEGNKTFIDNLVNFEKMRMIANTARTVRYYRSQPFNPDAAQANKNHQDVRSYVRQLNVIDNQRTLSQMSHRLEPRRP
Assay: 8-NBD-cAMP competition binding assay
Details: RA = IC50, cAMP/ IC50, compound
PROPERTY_NAME: Relative Potency (RA)
Number only, no unit.

Sample answers from the record:
>>> value_measured("Cc1cc(C)c(S(=O)(=O)c2ccc(O)cc2)c(C)c1 [Compound 10, 4-(2,4,6-Trimethylbenzenesulfonyl)phenol]")
3.0
>>> value_measured("Cc1cc(C)c(S(=O)(=O)c2cc(C)c(C)cc2C)c(C)c1 [Compound 5a]")
57.1
>>> value_measured("Cc1cc(C)c(Nc2cc(Cl)cc(Cl)c2)c(C)c1 [Compound 14b]")
44.4

For the record Cc1cc(C)c(S(=O)(=O)n2ccc3cccnc32)c(C)c1 [Compound 24d] , what value of Relative Potency (RA) is listed for UniProtKB Q9EQZ6?
16.7

Cool, now CCc1cccn1S(=O)(=O)c1ccccc1C [Compound 20f]
7.5

Cool, now Nc1ccc(Nc2ccc(N)cc2S(=O)(=O)O)cc1 [Compound 2]
2.2

Cool, now CCc1cccn1S(=O)(=O)c1cc(C)cc(C)c1 [Compound 20g]
8.5

Cool, now Cc1cc(C)c(S(=O)(=O)n2ccc3ccncc32)c(C)c1 [Compound 24c]
3.2

Cool, now CCc1cccn1S(=O)(=O)c1ccc(OC)cc1 [Compound 20c]
5
